Test Summary: Solubility of compound of Formula (I) in water, buffers and surfactant solutions
Assay type: physicochemical
Measurement Setup: water, pH 7.95, water, thermodynamic from solid, Water; pH after equilibration 7.95; read-out: Solubility Sample-2
Value Type: solubility (µg/mL)

Compound	Value Type	Quantitative Result
Cn1c(=O)c2c(ncn2CC(=O)Nc2ccc(-c3ccccc3)nn2)n(C)c1=O [compound of Formula (I)]	solubility	5.97

* * *

Test Summary: Solubility of compound of Formula (I) in water, buffers and surfactant solutions
Assay type: physicochemical
Measurement Setup: 2% w/v Tween 80 in pH 3.0 buffer, pH 3, aqueous with cosolvent or surfactant or cyclodextrin, thermodynamic from solid, 2% w/v Tween 80 in pH 3.0 buffer; pH after equilibration 3.16; read-out: Solubility Average (n = 2)

Smiles String	solubility
Cn1c(=O)c2c(ncn2CC(=O)Nc2ccc(-c3ccccc3)nn2)n(C)c1=O	25.2 µg/mL
